Target: UniProtKB P25774
Assay: Cathepsin S inhibition assay (fluorogenic peptide substrate)
Type: biochemical
Conditions: Table II, compounds of Formula I; read-out: Ki Cat. S
pKi: −log10 of the molar value.
Endpoint: pKi

Worked examples follow.
1. Cc1cc(C)nc(N(C)c2cccc(C(=O)N[C@@H](CC3CCCCC3)C(=O)NCCNc3ccc(OC(F)(F)F)cc3)c2)n1 :: > 7.00
2. COc1ccc(NCCNC(=O)[C@H](Cc2ccc(Oc3ccc(Cl)c(Cl)c3)cc2)NC(=O)c2cccc(C)c2)cc1 :: > 6.00
3. Cc1ccc(-c2ccc(C(=O)N[C@@H](CC3CCCCC3)C(=O)NCCNc3ccc(OC(F)(F)F)cc3)o2)cc1 :: > 7.00
4. COc1ccc(NCCNC(=O)[C@H](Cc2ccc(-c3ccc(OC)nc3)cc2)NC(=O)c2cccc(C)c2)cc1 :: > 7.00
5. COc1ccc(NCCNC(=O)[C@H](CCc2ccccc2)NC(=O)c2cccc(C)c2)cc1 :: > 6.00
6. COc1ccc(NCCNC(=O)[C@H](Cc2cccc(F)c2)NC(=O)c2cccc(C)c2)cc1 :: > 7.00

Look up pKi: `C[C@H](C(=O)N[C@@H](CC1CCCCC1)C(=O)NCCNc1ccc(F)cc1)c1ccccc1`
> 7.00

Same lookup for `COc1ccc(NCCNC(=O)[C@H](CC2CCCCC2)NC(=O)c2cccc(N(C)C)c2)cc1` , please.
> 7.00

Same lookup for `Cc1cccc(-c2ccc(C(=O)N[C@@H](CC3CCCCC3)C(=O)NCCNc3ccc(OC(F)(F)F)cc3)o2)c1` , please.
> 7.00

Same lookup for `COc1ccc(NCCNC(=O)[C@H](Cc2ccc(Br)cc2)NC(=O)c2cccc(C)c2)cc1` , please.
> 7.00

###

Molecular target: Cathepsin S (Homo sapiens, UniProt P25774)
Sequence (P25774 115-331, species assumed): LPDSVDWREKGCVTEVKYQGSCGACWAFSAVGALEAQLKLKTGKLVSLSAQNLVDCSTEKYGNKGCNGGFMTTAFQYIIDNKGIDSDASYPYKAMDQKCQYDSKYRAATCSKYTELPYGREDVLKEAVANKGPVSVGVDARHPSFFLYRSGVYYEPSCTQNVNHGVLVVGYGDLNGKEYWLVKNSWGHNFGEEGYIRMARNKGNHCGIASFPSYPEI
Test: Cathepsin S inhibition assay (fluorogenic peptide substrate)
Assay type: biochemical
Conditions: Table II, compounds of Formula I; read-out: Ki Cat. S
Recorded Ki, one value per entry.

1. O=C(Cn1cnnn1)N[C@@H](CC1CCCCC1)C(=O)NCCNc1ccc(OC(F)(F)F)cc1 :: < 1000 nM
2. Cc1cc2ncc(C(=O)N[C@@H](CC3CCCCC3)C(=O)NCCNc3ccc(OC(F)(F)F)cc3)c(C)n2n1 :: < 1000 nM
3. COc1ccc(NCCNC(=O)[C@H](Cc2ccc(-c3cccc([N+](=O)[O-])c3)cc2)NC(=O)c2cccc(C)c2)cc1 :: < 1000 nM
4. COc1ccc(NCCNC(=O)[C@H](Cc2ccc(-c3ccncc3)cc2)NC(=O)c2cccc(C)c2)cc1 :: < 100 nM

Look up Ki: CC(C(=O)NC(CC1CCCCC1)C(=O)NCCNc1ccc(F)cc1)c1ccc(-c2ccccc2)c(F)c1 (stereo not shown)
< 100 nM

Same lookup for `O=C(N[C@@H](CC1CCCCC1)C(=O)NCCNc1ccc(F)cc1)C1CC1` , please.
< 100 nM

Same lookup for `COc1ccc(NCCNC(=O)[C@H](Cc2ccccc2)NC(=O)Nc2ccccc2)cc1` , please.
< 1000 nM

Same lookup for `COc1ccc(NCCNC(=O)[C@H](Cc2ccc(-c3cc(OC)ccc3OC)cc2)NC(=O)c2cccc(C)c2)cc1` , please.
< 1000 nM

###

Molecular target: Cathepsin K (Homo sapiens, UniProt P43235)
Sequence (P43235 115-329): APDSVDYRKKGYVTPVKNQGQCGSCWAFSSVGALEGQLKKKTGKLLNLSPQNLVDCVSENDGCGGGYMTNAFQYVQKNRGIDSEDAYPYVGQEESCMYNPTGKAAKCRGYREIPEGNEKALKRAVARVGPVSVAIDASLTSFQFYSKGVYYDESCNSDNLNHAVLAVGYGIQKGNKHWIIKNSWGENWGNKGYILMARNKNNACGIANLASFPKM
Assay: Cathepsin K inhibition assay (fluorogenic peptide substrate); selectivity ratio vs cathepsin S
Type: biochemical
Details: ratio of cathepsin K inhibition constant to cathepsin S inhibition constant; Table II
Endpoint: Selectivity for Cat. S over Cat. K

Worked examples follow.
1) COc1ccc(NCCNC(=O)[C@H](Cc2ccccc2)NC(=O)c2cccc(C#N)c2)cc1 :: ++ (++, >100)
2) O=C(N[C@@H](CC1CCCCC1)C(=O)NCCNc1ccc(OC(F)(F)F)cc1)c1ccc(-c2ccccc2F)o1 :: ++ (++, >100)
3) COc1ccc(NCCNC(=O)[C@H](CC2CCCCC2)NC(=O)c2cccc(Cl)c2F)cc1 :: +++ (+++, >1000)
4) COc1ccc(NCCNC(=O)[C@H](CC2CCCCC2)NC(=O)c2ccc(-c3ccc(Cl)cc3)cc2)cc1 :: + (+, >10)
5) COc1ccc(NCCNC(=O)[C@H](Cc2ccc(Oc3cccc(Cl)c3)cc2)NC(=O)c2cccc(C)c2)cc1 :: ++ (++, >100)

Look up Selectivity for Cat. S over Cat. K: `COc1ccc(NCCNC(=O)[C@H](CC2CCCCC2)NC(=O)c2cccc(C#N)c2)cc1`
++ (++, >100)

Same lookup for `O=C(N[C@@H](CC1CCCCC1)C(=O)NCCNc1ccc(OC(F)(F)F)cc1)c1onc2ccccc12` , please.
++ (++, >100)

Same lookup for `COc1ccc(NCCNC(=O)[C@H](CCC2CCCCC2)NC(=O)c2cccc(OC(F)(F)F)c2)cc1` , please.
+++ (+++, >1000)

Same lookup for `O=C(N[C@@H](CC1CCCCC1)C(=O)NCCNc1ccc(F)cc1)c1cscn1` , please.
+ (+, >10)

Same lookup for `O=C(N[C@@H](CC1CCCCC1)C(=O)NCCNc1ccc(OC(F)(F)F)cc1)c1ccc(OCc2ccccc2)cc1` , please.
+ (+, >10)

Same lookup for `COc1ccc(NCCNC(=O)[C@H](CC2CCCCC2)NC(=O)c2sc(-c3ccc(C(F)(F)F)cc3)nc2C)cc1` , please.
+++ (+++, >1000)

Same lookup for `COc1ccc(NCCNC(=O)[C@H](Cc2ccc(-c3ccc(C#N)cc3)cc2)NC(=O)c2cccc(C)c2)cc1` , please.
+++ (+++, >1000)

Same lookup for `O=C(NCCNc1ccc(OC(F)(F)F)cc1)[C@H](CC1CCCCC1)NC(=O)[C@@H](O)c1ccccc1` , please.
++ (++, >100)

Same lookup for COc1ccc(NCCNC(=O)C(NC(=O)c2cccc(C)c2)c2ccc(F)cc2)cc1 (centres unmarked) , please.
++ (++, >100)

Same lookup for `COc1ccc(NCCNC(=O)[C@H](Cc2ccc(Oc3ccc(N(C)C)cc3)cc2)NC(=O)c2cccc(C)c2)cc1` , please.
+ (+, >10)

Same lookup for `COc1ccc(NCCNC(=O)[C@H](CC2CCCCC2)NC(=O)c2cc(C(F)(F)F)ccc2F)cc1` , please.
++ (++, >100)

Same lookup for `COc1ccc(NCCNC(=O)[C@H](CC2CCCCC2)NC(=O)[C@@H](C)c2ccccc2)cc1` , please.
+++ (+++, >1000)

Same lookup for `CC[C@@H](C(=O)N[C@@H](CC1CCCCC1)C(=O)NCCNc1ccc(OC(F)(F)F)cc1)c1ccccc1` , please.
+++ (+++, >1000)

Same lookup for `COc1ccc(NCCNC(=O)[C@H](CC2CCCCC2)NC(=O)c2cccc(C(F)(F)F)c2F)cc1` , please.
+++ (+++, >1000)

Same lookup for `COc1ccc(NCCNC(=O)[C@H](Cc2ccc(Cl)cc2Cl)NC(=O)c2cccc(C)c2)cc1` , please.
+++ (+++, >1000)

###

Molecular target: Cathepsin K (Homo sapiens)
Experiment: Cathepsin K inhibition assay (fluorogenic peptide substrate); selectivity ratio vs cathepsin S
Type: biochemical
Details: ratio of cathepsin K inhibition constant to cathepsin S inhibition constant; Table II
Endpoint: Selectivity for Cat. S over Cat. K

Worked examples follow.
1) COc1ccc(NCCNC(=O)[C@H](Cc2ccc(Oc3ccccc3C)cc2)NC(=O)c2cccc(C)c2)cc1 [Compound 66] :: ++ (++, >100)
2) Cc1oc(S(=O)(=O)N2CCCC2)cc1C(=O)N[C@@H](CC1CCCCC1)C(=O)NCCNc1ccc(OC(F)(F)F)cc1 [Compound 40] :: + (+, >10)
3) O=C(Cc1cc(F)cc(F)c1)N[C@@H](CC1CCCCC1)C(=O)NCCNc1ccc(F)cc1 [Compound 125] :: ++ (++, >100)
4) COc1ccc(NCCNC(=O)[C@H](CC2CCCCC2)NC(=O)c2cccc(Cl)c2)cc1 [Compound 118] :: ++ (++, >100)
5) COc1ccc(NCCNC(=O)[C@H](Cc2ccccc2)NC(=O)Nc2ccc(Oc3ccccc3)cc2)cc1 [Compound 89] :: + (+, >10)

Look up Selectivity for Cat. S over Cat. K: CC(C(=O)NC(CC1CCCCC1)C(=O)NCCNc1ccc(F)cc1)c1ccc(F)cc1 (mixture of isomers) [Compound 320]
++ (++, >100)
